- protocol-notes: TOX21_p53_BLA_p2_viability: Viability Assessment in the Tox21 HCT-116 p53 Agonism Beta-lactamase Assay, Phase 2 (AID 2283591);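 further: compound exposure lasted 16 h at 37 °C; actives lower the ATP signal meaning cytotoxicity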
Inconclusive results are not listed. Active and inactive are the calls of the source. How the source made its calls: active means hit-call score of the fitted dose curve at least 0.9, where 1 is the maximum; inconclusive means response in the unintended direction; inactive means score below 0.9.
measurement-name: AC50

CCCCCc1ccc(N)cc1; inactive
CCOC(=O)O[C@H](C)OC(=O)c1ccc2c(c1)cc(C(=O)NC1CCN(C(C)C)CC1)n2Cc1cc(-c2ccc(Cl)s2)on1; 16.1 µM (active)
CCN(Cc1cccc(S(=O)(=O)O)c1)c1ccc(C(=C2C=CC(=[N+](CC)Cc3cccc(S(=O)(=O)O)c3)C=C2)c2ccccc2S(=O)(=O)[O-])cc1; 19.4 µM (active)
Cc1occc1C(=O)Nc1ccc(C(=O)N2CCC(F)(F)/C(=C\C(=O)N3CCC(N4CCCCC4)CC3)c3ccccc32)cc1; inactive
